Test system: MOLT-4 leukemia
Experiment: NCI-60 one-dose screen, 48 h
Details: 10 µM
Procedure: Growth inhibition of the MOLT-4 human tumor cell line is measured as a screen for anti-cancer activity. Cells are grown in 96 well plates and exposed to the test compound for 48 hours. Compounds are tested at a single concentration, which is 10^-5 M for most compounds. The reported endpoint is percent growth (GI% or GIPRCNT), where numbers from 0 - 100% represent growth inhibition, and numbers from -100% - 0 represent cell death. For example, a value of 40 represents 60% growth inhibition. […]
The panel holds about 83,000 compounds, 20% with a hit somewhere; the sample as a whole holds those more often. Calls of active or inactive are those of the source. Rule for the calls: active = growth percent below 10; inactive = the rest.
Your answer must be one of the following: active, inactive

Exercise: Field: outcome | Entry: CCCCCCCCCCCCCCCCCCOCC(COCCOCC[N+]1(CCCCCC(=O)[O-])CCCC1)Oc1ncccn1 (centres undefined)
Key: inactive

Exercise: Field: outcome | Entry: "O=C1/C(=C\c2cn(C(=O)c3ccc(Cl)cc3)c3ccccc23)c2ccccc2N1C(=O)c1ccc(Cl)cc1"
Key: inactive

Exercise: Field: outcome | Entry: "NC(=O)SCC(=O)Nc1ccc(S(N)(=O)=O)cc1"
Key: inactive

====

system: ACHN renal; experiment: NCI-60 one-dose screen, 48 h (100 = growth as untreated, 0 = no growth, -100 = all killed); settings: 10 µM
This is part of a sample that, as a whole, favours compounds with a hit. Of some 83,000 tested, about 20% had one in any assay.
OUTCOME_MEASURE: growth (%)
Numbers only, in %.

* Cc1c(Cl)cccc1NC(=O)c1sc2nc3c(cc2c1N)C(=O)CCC3 | 39.4
* CC(C)(C#N)Nc1ccccc1 | 97.8
* Nc1ccc2cc(S(=O)(=O)O)cc(O)c2c1N=Nc1ccc(F)cc1 | 99.7
* Cc1ccc2oc3nc(C)c(C(=O)NCc4ccccc4)cc3c(=O)c2c1 | 63.8
* CC1CN(Cc2ccccc2)C(=O)NC1=O (centres undefined) | 109

Give growth for all compounds that follow.
1. O=C(Nc1ccncc1)C(=O)c1cn(S(=O)(=O)c2cccc3ccccc23)c2ccccc12
2. COc1cc2c(cc1OC)N(CCO)C1=C(C(=O)OC1)C2c1ccc(Cl)c(Cl)c1 (centres undefined)
3. N#Cc1ncc(-c2cc(F)c(F)c(F)c2)c(NC2CCCCCC2)n1
4. COc1ccc(-c2nc3ncccn3c2-c2nnc(-c3ccc(F)cc3)o2)cc1

Key:
1. 87.2
2. 107
3. 92.6
4. 97.6

====

tested on: MDA-MB-435 melanoma; test: NCI-60 one-dose screen, 48 h; details: 10 µM
The panel holds about 83,000 compounds, 20% with a hit somewhere; the sample as a whole holds those more often. The source made the active and inactive calls. Rule for the calls: active = growth percent below 10; inactive = the rest.
Your answer must be one of the following: yes = active, no = inactive

Past entries and their recorded results:
- COc1ccc(-n2c(SCc3cc(OC)c(OC)c(OC)c3)nc3ccc(C)cc3c2=O)cc1: yes
- CC(C)(C#N)Nc1ccccc1: no
- COc1cc(-c2cc(/C=C/C(=O)c3ccc(F)c(F)c3)[nH]n2)cc(OC)c1OC: no
- O=c1[nH]c(-c2ccc(Cl)cc2)nc2sc3c(c12)CCCC3: no
- c1ccc2c(c1)oc1c3cccnc3ccc21: no

Then there is this molecule:
Exercise: Field: outcome | Entry: "CCCC#CCN(CC)CC"
Key: no

====

test system: U251 CNS; assay: NCI-60 one-dose screen, 48 h; details: 10 µM
The panel holds about 83,000 compounds, 20% with a hit somewhere; the sample as a whole holds those more often. Activity calls are given as the source filed them. Rule for the calls: active = growth percent below 10; inactive = the rest.
Your answer must be one of the following: active, inactive

Past entries and their recorded results:
* CNc1ccc(CSc2ccc(C)cc2)cc1 | inactive
* O=[N+]([O-])c1cccc(N=Cc2ccc3c(c2)OCO3)c1 | inactive
* Clc1ccc(-c2cn(-c3ccccc3)c(-c3ccccc3)n2)c(Cl)c1 | active
* O=C1c2ccc3c4c(ccc(c24)C(=O)N1CCNCc1ccccc1)C(=O)N(CCNCc1ccccc1)C3=O | active
* CCN(CC)CCC(CNc1c(C)cnc2cc(Cl)ccc12)c1ccc(Cl)cc1 (stereo not given) | inactive
* O=C(Nc1ccc(Cl)c([N+](=O)[O-])c1)Nc1nc2ccccc2s1 | inactive

Exercise: Field: outcome | Entry: "COc1ccc(OC)c(/C=C/c2nnc(Nc3ccc(Cl)cc3)o2)c1"
Key: inactive

Exercise: Field: outcome | Entry: CCN(CC)CCCC(C)Nc1nc(-c2ccc(OC)cc2)nc2cc(Cl)ccc12 (stereo not given)
Key: inactive

Exercise: Field: outcome | Entry: "COc1ccc(-c2nc(-c3nc4ccc(Cl)cc4[nH]3)c3ccccn23)cc1"
Key: active

Exercise: Field: outcome | Entry: "CN(C)N=Nc1nn(C(=O)Nc2ccc(Cc3ccccc3)cc2)c2ccccc12"
Key: inactive

====

tested on: NCI-H23 lung; assay: NCI-60 one-dose screen, 48 h (100 = growth as untreated, 0 = no growth, -100 = all killed); conditions: 10 µM
This is part of a sample that, as a whole, favours compounds with a hit. Of some 83,000 tested, about 20% had one in any assay.
Provide the reported growth of each item.
One number for each entry, in %.

Completed entries (count: 6):
• COc1ccc(OC)c2c1C(=O)CC2C (configuration not stated) = 102
• CC[C@H]1CCC/C=C/[C@@H]2C[C@H](O)C[C@H]2[C@H](O)/C=C/C(=O)O1 = -12.8
• COc1ccc2c(c1)C(=O)c1c-2c(=O)n(CCCN(C)C)c2cc(OC)c(OC)cc12 = 48.8
• Nc1nc(Nc2ccccc2)n[nH]1 = 94.7
• CC(C)C[C@H](NC(=O)[C@H](Cc1cccc2ccccc12)NS(=O)(=O)c1cccc2cccnc12)B(O)O = -52.9
• O=C1/C(=C/c2ccc([N+](=O)[O-])o2)Oc2ccccc21 = -8.25

Please find the next compound below.
Exercise: Consider the compound "Cc1cc(Nc2ccc(Cl)cc2)nc(NCCCNc2ccnc3cc(Cl)ccc23)n1" and give its measured growth.
Key: 51.2

====

test system: SK-MEL-5 melanoma; test: NCI-60 one-dose screen, 48 h; conditions: 10 µM
About 83,000 compounds went through this panel and 20% of them were active in at least one assay; those are over-represented in the sample as a whole. The source made the active and inactive calls. The calls were made as follows: active = growth percent below 10; inactive = the rest.
Your answer must be one of the following: true = active, false = inactive

* CCN(CC)CCOc1nc2ccccc2c2c1-c1ccc(OC)cc1C2=O | true

Exercise: Field: outcome | Entry: "O=C1Nc2ccccc2C1=NC1CCCCC1"
Key: false

Exercise: Field: outcome | Entry: "Nc1c(C(=O)Nc2ccccc2Cl)sc2nc3c(cc12)C(=O)CCC3"
Key: false

Exercise: Field: outcome | Entry: "O=c1[nH]c2ccc(Cl)cc2c2ccccc12"
Key: false

Exercise: Field: outcome | Entry: CC[C@H](C)C(=O)O[C@H]1CCC=C2C=C[C@H](C)C(CCC3C[C@@H](O)CC(=O)O3)[C@H]21 (some centres undefined)
Key: false

Exercise: Field: outcome | Entry: "COc1cc(Nc2ccnc(NCCCNc3ccnc4cc(Cl)ccc34)n2)cc(OC)c1"
Key: true

Exercise: Field: outcome | Entry: "Oc1[nH]c2cc(Cl)ccc2c1/C=c1/ccc2c(c1)N=C(c1cc(F)cc(F)c1)N=2"
Key: false

Exercise: Field: outcome | Entry: "O=C1/C(=C/c2ccc([N+](=O)[O-])o2)Oc2ccccc21"
Key: false

Exercise: Field: outcome | Entry: "COc1ccc(-c2nn(-c3cccc(NC(=O)Nc4ccccc4)c3)cc2-c2ccncc2)cc1Cl"
Key: false

====

tested on: SF-295 CNS; assay: NCI-60 one-dose screen, 48 h; settings: 10 µM
About 83,000 compounds went through this panel and 20% of them were active in at least one assay; those are over-represented in the sample as a whole. The source made the active and inactive calls. The calls were made as follows: active = growth percent below 10; inactive = the rest.
Your answer must be one of the following: True for active, False for inactive

Past entries and their recorded results:
* COc1ccc(-c2nc(-c3nc4ccc(Cl)cc4[nH]3)c3ccccn23)cc1 | True
* COC(=O)C1=NNC(=S)N(c2cc(C)[nH]n2)C(=O)C1 | False
* C[N+](C)(C)c1ncnc2nc[nH]c12 | False

Exercise: Field: outcome | Entry: "COc1ccc(OC)c(/C=C/c2nc(SC)n(-c3ccc(Cl)cc3)n2)c1"
Key: False

Exercise: Field: outcome | Entry: "CCOC(=O)CNC(=O)CCCCSc1ncnc2nc[nH]c12"
Key: False

Exercise: Field: outcome | Entry: "Cc1ccc(NC(=O)NC2CCCCC2)cc1"
Key: False

Exercise: Field: outcome | Entry: O=C(CC(NC(=O)OCc1ccccc1)C(=O)OCc1ccccc1)OCc1ccccc1 (configuration not stated)
Key: False

Exercise: Field: outcome | Entry: "O=C(Nc1ccc(CO)cc1)c1ccccc1Nc1ccnc(C(F)(F)F)c1"
Key: False

Exercise: Field: outcome | Entry: CN(C)CC(O)c1ccc2cc(Br)c3ccccc3c2c1 (configuration not stated)
Key: False

Exercise: Field: outcome | Entry: "O=C1NC(=O)c2ncccc21"
Key: False
